Reported koff values are given for each entry in this list.
tested.target: T1, c-Met-Fc chimera protein (UniProt P08581 25-932, limits assumed)
T1 construct: Captured on the SPR chip by an anti-IgG antibody; not shown: Fc part
T1 sequence (P08581 25-932 limits assumed, change not shown): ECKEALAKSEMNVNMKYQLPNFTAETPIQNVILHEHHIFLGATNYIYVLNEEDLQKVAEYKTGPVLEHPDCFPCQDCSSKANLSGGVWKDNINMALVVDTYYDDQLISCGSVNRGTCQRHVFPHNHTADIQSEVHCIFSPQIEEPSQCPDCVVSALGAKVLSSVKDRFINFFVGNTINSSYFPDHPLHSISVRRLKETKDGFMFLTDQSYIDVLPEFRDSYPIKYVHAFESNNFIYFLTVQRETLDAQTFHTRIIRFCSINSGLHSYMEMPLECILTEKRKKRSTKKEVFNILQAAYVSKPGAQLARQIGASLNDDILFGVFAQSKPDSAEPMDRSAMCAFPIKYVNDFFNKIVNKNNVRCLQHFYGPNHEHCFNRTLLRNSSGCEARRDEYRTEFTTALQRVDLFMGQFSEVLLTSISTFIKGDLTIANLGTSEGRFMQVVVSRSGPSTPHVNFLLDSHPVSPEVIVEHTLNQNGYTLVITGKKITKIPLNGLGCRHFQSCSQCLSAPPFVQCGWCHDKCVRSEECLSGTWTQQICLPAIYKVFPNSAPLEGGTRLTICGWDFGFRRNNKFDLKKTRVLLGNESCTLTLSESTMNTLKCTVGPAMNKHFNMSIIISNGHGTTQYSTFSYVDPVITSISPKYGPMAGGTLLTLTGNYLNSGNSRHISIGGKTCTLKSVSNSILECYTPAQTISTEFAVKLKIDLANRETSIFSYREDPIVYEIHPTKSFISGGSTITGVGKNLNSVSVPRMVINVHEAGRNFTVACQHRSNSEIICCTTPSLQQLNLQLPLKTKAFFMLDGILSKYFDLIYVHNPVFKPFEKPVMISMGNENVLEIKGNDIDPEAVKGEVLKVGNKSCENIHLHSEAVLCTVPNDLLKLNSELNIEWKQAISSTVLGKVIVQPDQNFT
experimental.details: SPR presumed (Biacore as in 9-1; method not given), c-Met-Fc on chip
Bridges are numbered along the chain shown (N, C = ends). Where no end group is shown, it is not given here. [ ]: non-standard residue; d: D form. NMeR = CN[C@@H](CCCNC(=N)N)C(=O)O; NMeC = CN[C@@H](CS)C(=O)O
Please state the figure in s⁻¹; there is no need to write the unit.

{CH2CO}-YRQFNRRTHEVWNLDCG (thioether N-16; not fully specified, also called D4-3 peptide; D4-3 Monomer) [D4-3]    0.011

Item {CH2CO}-YRQFNRRTHEVWNLD[NMeC]G (thioether N-16 (inferred)) [N16, N-methylated D4-3 peptide] has what recorded koff?
0.01

Item {CH2CO}-YRQFN[NMeR]RTHEVWNLDCG (thioether N-16) [D4-3-N6] has what recorded koff?
0.0041

Item {CH2CO}-YRQFN[NMeR]RTHEVWNLD[NMeC]G (thioether N-16, also called NMe (N6 + N16); N-methylated D4-3) [D4-3NMe] has what recorded koff?
0.0021

These measurements were taken from patent US20160237119A1.
